- target-or-system: Glucocorticoid receptor (Homo sapiens) (UniProt P04150)
- Sequence (P04150 whole entry, looked up): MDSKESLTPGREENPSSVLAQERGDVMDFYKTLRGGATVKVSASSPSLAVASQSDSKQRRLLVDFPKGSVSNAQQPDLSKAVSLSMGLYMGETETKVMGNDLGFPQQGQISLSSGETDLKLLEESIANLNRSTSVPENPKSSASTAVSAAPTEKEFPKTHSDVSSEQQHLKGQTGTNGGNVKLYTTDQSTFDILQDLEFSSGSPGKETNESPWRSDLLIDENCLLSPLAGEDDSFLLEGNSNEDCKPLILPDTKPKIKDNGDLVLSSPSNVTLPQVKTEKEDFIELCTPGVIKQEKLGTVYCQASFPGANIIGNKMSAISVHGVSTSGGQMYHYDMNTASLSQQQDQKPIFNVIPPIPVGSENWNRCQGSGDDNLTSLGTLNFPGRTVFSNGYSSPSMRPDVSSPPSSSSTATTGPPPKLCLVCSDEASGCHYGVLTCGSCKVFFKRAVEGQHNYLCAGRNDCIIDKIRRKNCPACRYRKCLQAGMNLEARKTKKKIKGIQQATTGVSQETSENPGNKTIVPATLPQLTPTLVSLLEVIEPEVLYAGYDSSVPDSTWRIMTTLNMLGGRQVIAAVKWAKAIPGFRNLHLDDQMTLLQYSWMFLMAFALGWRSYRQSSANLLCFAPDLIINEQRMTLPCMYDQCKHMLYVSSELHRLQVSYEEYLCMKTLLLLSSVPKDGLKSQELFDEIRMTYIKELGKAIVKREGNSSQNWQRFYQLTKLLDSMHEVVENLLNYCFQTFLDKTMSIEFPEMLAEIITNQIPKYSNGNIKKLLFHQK
- measurement-protocol: GR-GFP Redistribution (AID 450); note: potency is the fitted concentration of half-maximal effect
- assay-conditions: U2OS GR-GFP nuclear translocation, laser cytometry, 2 h; series mostly up to 20.6 µM
The source made the active and inactive calls.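 Rule for the calls: active = compounds whose dose series gives a full or clear partial fitted curve of increased nuclear translocation; inconclusive = weak partial curve or effect only at the top dose; inactive = no dose-dependent translocation response.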
property-measured: Potency

Reference set, count: 3
N#CC1=C(N)N(c2ccccc2)C(c2ccccc2)C1(C#N)C#N (stereo unspecified)	> 20.6 µM (inactive)
CC(C)CNC(=O)c1c(N)n(/N=C/c2cccnc2)c2nc3ccccc3nc12	> 20.6 µM (inactive)
CC(=O)c1cc(CN2CCCCC2)cc(OC(C)C)c1	> 20.6 µM (inactive)

# Potency lookup, item CC(C)(C)n1cnc2cc(NS(=O)(=O)c3ccc(Br)cc3)ccc21 > 20.6 µM (inactive)

// returns reported Potency for input CCc1nc2n[nH]c(N)c2c2c1CCCC2 > 20.6 µM (inactive)

Could you tell me which Potency is on file for CC1(C)C2CCC1(C)C(NC(=O)CCN1CCCCC1)C2 (stereo unspecified) ? > 20.6 µM (inactive)

* * *

- Tested on: CP325
- measurement-protocol: qHTS profiling for inhibitors of Plasmodium falciparum proliferation (AID 504749); note: nearly all actives have a fitted effect of over 60% in size
- assay-conditions: P. falciparum in erythrocytes, SYBR Green DNA, 72 h; series mostly up to 28.7 µM
Inconclusive results are not listed. The source made the active and inactive calls. Calls come from the whole dose curve; as a rule, active = well fitted inhibition curve with a large enough effect; inconclusive = small, poorly fitted or top-dose-only effect; inactive = flat fitted curve, though single readings scatter.
Just give me one of these, please: active, inactive

Use the examples below as a reference point.
CC1OC(OC2C(O)CC(OC3C(O)CC(OC4CCC5(C)C(CCC6C5CCC5(C)C(C7=CC(=O)OC7)CCC65O)C4)OC3C)OC2C)CC(O)C1O (stereo not drawn)	inactive
NC(=O)c1ncn(C2OC(CO)C(O)C2O)c1N (stereo not drawn)	inactive
NC[C@@H]1O[C@H](OC2[C@@H](CO)O[C@@H](OC3[C@H](O)[C@H](N)C[C@H](N)[C@H]3OC3O[C@H](CO)[C@@H](O)[C@H](O)[C@@H]3N)[C@H]2O)C(N)[C@H](O)[C@@H]1O (stereo partly drawn)	inactive
CN(C)CC[C@@](O)(c1ccccc1)c1ccccc1Cl	active
CCC(C)C(N)C(=O)O (stereo not drawn)	inactive

I'd appreciate the recorded outcome for CCCSS/C(CCO)=C(/C)N(C=O)Cc1cnc(C)nc1N from this test. inactive

State the result this test recorded for NC(=O)NC(CCC(=O)O)C(=O)O (stereo not drawn) . inactive

How did this test come out for CC1C(=O)C(=O)C=CN1C (stereo not drawn) ? inactive

Any idea what this test logged for C[C@@H](O)[C@@H]1C(=O)N2C(C(=O)O)=C([C@H]3CCCO3)S[C@H]12 ? inactive

Could you check what this test reported for OCCOC[C@H]1O[C@H](OCCO)[C@H](OCCO)[C@@H](OCCO)[C@@H]1OCCO (tested in a mixture with another compound) ? inactive

* * *

- System: JCK
- measurement-protocol: qHTS profiling for inhibitors of Plasmodium falciparum proliferation (AID 504749); note: nearly all actives have a fitted effect of over 60% in size
- assay-conditions: P. falciparum in erythrocytes, SYBR Green DNA, 72 h; series mostly up to 28.7 µM
Results filed as inconclusive are left out. The source made the active and inactive calls. The call rests on the fitted dose curve; in most records, active means well fitted inhibition curve with a large enough effect; inconclusive means small, poorly fitted or top-dose-only effect; inactive means flat fitted curve, though single readings scatter.
Your response should consist of one outcome taken from active, inactive

Nc1nc(F)nc2c1ncn2[C@@H]1O[C@H](CO)[C@@H](O)[C@H]1O	inactive
Nc1ncn(C2C[C@H](O)[C@@H](CO)O2)c(=O)n1 (some centres not stated)	inactive
CO/N=C(/C(=O)N[C@@H]1C(=O)N2C(C(=O)O)=C(CSc3nnnn3C)CS[C@H]12)c1csc(N)n1	inactive
COc1cccc2c1C(=O)c1c(O)c3c(c(O)c1C2=O)C[C@@](O)(C(=O)CO)C[C@@H]3OC1CC(N)C(O)C(C)O1 (some centres not stated)	active
O=C(O)C(O)c1ccccc1 (configuration not stated)	inactive
C[C@]12CCC(=O)C=C1[C@@H]1C[C@H]1[C@H]1[C@@H]3[C@@H]4C[C@H]4[C@@]4(CCC(=O)O4)[C@@]3(C)CC[C@@H]12	inactive
C/C(=C(/CCO)SS/C(CCO)=C(\C)N(C=O)Cc1cnc(C)nc1N)N(C=O)Cc1cnc(C)nc1N	inactive
O=C1CC[C@H](C(=O)N[C@@H]2C[C@H]2c2ccccc2)N1	inactive

Kindly consider the entry below.
Can you look up the reported call for C[C@@H]1C(SC2Cn3cnc[n+]3C2)=C(C(=O)[O-])N2C(=O)[C@H]([C@@H](C)O)[C@@H]12 (some centres not stated) for me? inactive

Data provenance is PubChem BioAssay (NCATS).
